Every entry's value here was drawn from ChEMBL document CHEMBL1145161.

biological target: Trypanothione reductase (Trypanosoma cruzi) (UniProt P28593); test: Inhibitory activity (100 uM) against recombinant Trypanosoma cruzi trypanothione reductase was determined in presence of Trypanothione disulfide (40 uM)
Sequence (P28593 whole entry, looked up): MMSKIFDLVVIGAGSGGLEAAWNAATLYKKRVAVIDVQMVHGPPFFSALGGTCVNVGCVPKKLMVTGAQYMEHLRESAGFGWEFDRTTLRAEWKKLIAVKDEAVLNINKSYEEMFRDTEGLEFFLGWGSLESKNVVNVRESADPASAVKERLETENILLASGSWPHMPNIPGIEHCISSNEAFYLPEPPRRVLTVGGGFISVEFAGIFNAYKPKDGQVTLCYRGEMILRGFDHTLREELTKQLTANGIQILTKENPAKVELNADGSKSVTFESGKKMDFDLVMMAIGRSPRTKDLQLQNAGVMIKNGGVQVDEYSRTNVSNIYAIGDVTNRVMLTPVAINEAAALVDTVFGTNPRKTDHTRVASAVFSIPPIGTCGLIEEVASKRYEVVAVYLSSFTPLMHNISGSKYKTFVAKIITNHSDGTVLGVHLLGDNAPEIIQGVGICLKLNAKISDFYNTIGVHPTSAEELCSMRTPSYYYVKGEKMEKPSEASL
Each entry below carries its reported inhibition.
outcome-measure: inhibition (%)

molecule | bound-type | measurement
CN1CCN(CCC/N=C(\N)c2cccs2)CC1 | < | 10
CN1CCN(CCC/N=C(\N)c2sccc2Br)CC1 | < | 10
N=C(NCCc1cccnc1)c1cccs1 | < | 10
N=C(NCCCCCCCCNC(=N)c1cccs1)c1cccs1 | = | 15
N=C(Nc1ccc(Oc2ccc(NC(=N)c3cccs3)cc2)cc1)c1cccs1 | = | 11
N=C(NCCc1cccnc1)c1sccc1Br | = | 14
COc1cc(C(=N)NC2CCC(CC3CCC(/N=C(\N)c4ccc(OCc5ccccc5)c(OC)c4)CC3)CC2)ccc1OCc1ccccc1 (stereo not given) | = | 94
N=C(NC1CCC(CC2CCC(NC(=N)c3cccs3)CC2)CC1)c1cccs1 (stereo not given) | = | 17
CN1CCN(CC/N=C(\N)c2ccc3[nH]ccc3c2)CC1 | = | 39
COc1cc(C(=N)Nc2ccc(Oc3ccc(NC(=N)c4ccc(OCc5ccccc5)c(OC)c4)cc3)cc2)ccc1OCc1ccccc1 | = | 95
N=C(NCCOCCOCCNC(=N)c1cnccn1)c1cnccn1 | = | 11
N=C(NC1CCC(CC2CCC(NC(=N)c3cnccn3)CC2)CC1)c1cnccn1 (stereo not given) | < | 10
N=C(NCCOCCOCCNC(=N)c1cccs1)c1cccs1 | = | 14
COc1cc(C(=N)NCCCCCCCCN=C(N)c2ccc(OCc3ccccc3)c(OC)c2)ccc1OCc1ccccc1 | = | 92
N=C(CCCCCCCC(=N)NCC#Cc1ccccc1)NCC#Cc1ccccc1 | = | 80
